Test system: NCI/ADR-RES ovarian
method: NCI tumour cell line growth inhibition, 48 h
TGI by entry:
Report the figure in µM without appending any unit label.

Here's what some known entries look like.
> print(dat)
                                   compound  unit.abbreviation  measured.number
1  NCCCCCn1c2c(c3ccccc3c1=O)C(=O)c1ccccc1-2                 µM             4.86
2         COC(=O)c1cnc(Cl)c([N+](=O)[O-])c1                 µM             68.3

[in] Reported TGI for O=C1C=CC2(O)OC/C(=C\c3ccccc3)C(O)=C2C1=O (stereo not given) : what is it?
[out] 12.7

[in] # lookup: TGI of N#CC(C/C=C/c1ccccc1)NNC(=O)c1c(Cl)c(Cl)c(Cl)c(Cl)c1-c1nc2ccc(C(=O)c3ccccc3)cc2[nH]1 (stereo not given)
[out] 31

[in] Fill blank: measured TGI of the compound O=c1c2cc(I)ccc2nc(Sc2ccc([N+](=O)[O-])cc2[N+](=O)[O-])n1Cc1ccccc1 is ____.
[out] 5.44

Data origin, for the record: PubChem BioAssay (NCI)
